Origin of the recorded values: the supplement of paper PMC10567573

B1: MFF (parent)
chain: YTEGISQRMRVPEKLKVAPPNADL

- Variants of: B1
- assay.notes: protein stability index of a GFP-peptide fusion (GPS, HEK-293T) (PSI 1-6); higher = more stable;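 note: lentivirally expressed fusions sorted by FACS into six bins by GFP to DsRed ratio, PSI derived from sequencing read proportions per bin multiplied by bin number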
- condition.description: c terminus: a fixed tail appended
Kindly return TRUE if reported protein stability index is no lower than 3; return FALSE if it is lower.

YTEGISQRMRVPEKLKVALPNADL [P19L]
TRUE
YTEGISQRMRVPENLKVAPPNADL [K14N]
TRUE
YTEGISQRMRVPERLKVAPPNADL [K14R]
TRUE
YTEGISQRMRVPEKLKVAPPEADL [N21E]
FALSE
YTEVISQRMRVPEKLKVAPPNADL [G4V]
TRUE
YTEGISQRMRVPCKLKVAPPNADL [E13C]
FALSE
YTEGILQRMRVPEKLKVAPPNADL [S6L]
FALSE
YTEAISQRMRVPEKLKVAPPNADL [G4A]
TRUE
YTEGISQRMSVPEKLKVAPPNADL [R10S]
FALSE
DTEGISQRMRVPEKLKVAPPNADL [Y1D]
TRUE
YTEGISQRRRVPEKLKVAPPNADL [M9R]
FALSE
YTYGISQRMRVPEKLKVAPPNADL [E3Y]
FALSE
YTEGISQRMRVPEKLKVAPPNKDL [A22K]
TRUE
YTEGISQRMRVPEKLKVAPPNRDL [A22R]
FALSE
YTEGISQRMRVPEKLKVAPPNMDL [A22M]
FALSE
YTEGISQRMRVPEKLKVPPPNADL [A18P]
FALSE
YTEGISQHMRVPEKLKVAPPNADL [R8H]
FALSE
YTEGISQRMRVPEKLKVAPPNHDL [A22H]
FALSE
YTEGISQRMRVPEKLKVVPPNADL [A18V]
FALSE
YTEGISQRMQVPEKLKVAPPNADL [R10Q]
TRUE
YTEGISQRIRVPEKLKVAPPNADL [M9I]
FALSE
YLEGISQRMRVPEKLKVAPPNADL [T2L]
FALSE
YTEGISGRMRVPEKLKVAPPNADL [Q7G]
FALSE
YPEGISQRMRVPEKLKVAPPNADL [T2P]
TRUE
YTEGISWRMRVPEKLKVAPPNADL [Q7W]
FALSE
YTEGISQRMRVIEKLKVAPPNADL [P12I]
FALSE
YTEGISQRMRVPEKLKIAPPNADL [V17I]
FALSE
YTEGISQRMRVPEKLKVAPPNADE [L24E]
TRUE
YTPGISQRMRVPEKLKVAPPNADL [E3P]
FALSE
YTEGISVRMRVPEKLKVAPPNADL [Q7V]
TRUE
YTEGISQRMRVPEKLKVYPPNADL [A18Y]
FALSE
YTEWISQRMRVPEKLKVAPPNADL [G4W]
FALSE
YREGISQRMRVPEKLKVAPPNADL [T2R]
TRUE
YTEGISTRMRVPEKLKVAPPNADL [Q7T]
FALSE
YTEGYSQRMRVPEKLKVAPPNADL [I5Y]
FALSE
YTEGIIQRMRVPEKLKVAPPNADL [S6I]
FALSE
YTEGISQRMRVPEKLKVAPPDADL [N21D]
TRUE
YTEGISQRMRVPEKLKVAPPNADV [L24V]
FALSE
YTEGISQRHRVPEKLKVAPPNADL [M9H]
TRUE
YTEGISQRMRVPEKLKVAPPNALL [D23L]
FALSE
